Recorded measurements of OD450 at 0.001 nM, one per entry
Molecular target: T1, human MSLN-R1-his protein (human, UniProt Q13421 296-390)
T1 construct: Region 1 of human MSLN, His-tagged; also called human MSLN-R1 protein; hMSLN-R1-his; not shown: His tag
T1 chain: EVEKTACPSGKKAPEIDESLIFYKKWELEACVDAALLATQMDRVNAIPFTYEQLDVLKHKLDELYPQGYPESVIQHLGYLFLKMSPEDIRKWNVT
Assay: ELISA, coated MSLN-R1;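 note: serially diluted chimeric antibodies bound to the coated, BSA-blocked plate for 2 h at 37 °C, with TMB colour read after acid stop and a negative control antibody alongside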
MEASURE NAME: OD450 at 0.001 nM (OD450)

[[record]]
binder = "S009-F2.58.8 (antibody, human IgG1, kappa, V domains shown, Human-murine chimeric antibody, human IgG1/kappa constant regions) VH: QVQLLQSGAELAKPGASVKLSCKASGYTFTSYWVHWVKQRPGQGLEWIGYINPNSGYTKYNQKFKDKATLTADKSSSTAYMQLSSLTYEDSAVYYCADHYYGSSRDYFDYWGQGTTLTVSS VL: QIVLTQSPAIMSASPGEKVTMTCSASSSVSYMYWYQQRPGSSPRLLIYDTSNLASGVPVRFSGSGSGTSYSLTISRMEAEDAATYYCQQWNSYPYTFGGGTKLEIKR"
value_units = "OD450"
value = 0.05

[[record]]
binder = "S009-F2.39.3 (antibody, human IgG1, kappa, V domains shown, Human-murine chimeric antibody, human IgG1/kappa constant regions) VH: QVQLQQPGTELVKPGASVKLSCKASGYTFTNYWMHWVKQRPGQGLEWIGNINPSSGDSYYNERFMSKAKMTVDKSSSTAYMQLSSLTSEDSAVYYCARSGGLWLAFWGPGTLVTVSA VL: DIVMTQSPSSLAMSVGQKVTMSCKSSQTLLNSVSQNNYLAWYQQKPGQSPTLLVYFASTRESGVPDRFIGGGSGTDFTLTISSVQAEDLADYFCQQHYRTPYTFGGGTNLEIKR"
value_units = "OD450"
value = 0.05

[[record]]
binder = "S009-F2.13.3 (antibody, human IgG1, kappa, V domains shown, Human-murine chimeric antibody, human IgG1/kappa constant regions) VH: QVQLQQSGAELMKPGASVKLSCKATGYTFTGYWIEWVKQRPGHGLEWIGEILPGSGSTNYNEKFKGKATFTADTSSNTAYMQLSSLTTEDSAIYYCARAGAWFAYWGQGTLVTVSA VL: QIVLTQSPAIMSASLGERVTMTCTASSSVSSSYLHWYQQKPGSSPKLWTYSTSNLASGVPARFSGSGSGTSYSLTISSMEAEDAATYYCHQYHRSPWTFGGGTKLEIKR"
value_units = "OD450"
value = 0.05

